# Test target: T1, full-length beta-Catenin (Uniprot ID P35222) (Homo sapiens (Human), UniProt P35222 2-781)
# T1 construct: Used full-length in both the FP and the AlphaScreen assay; also called B-Catenin; bCat
# T1 sequence: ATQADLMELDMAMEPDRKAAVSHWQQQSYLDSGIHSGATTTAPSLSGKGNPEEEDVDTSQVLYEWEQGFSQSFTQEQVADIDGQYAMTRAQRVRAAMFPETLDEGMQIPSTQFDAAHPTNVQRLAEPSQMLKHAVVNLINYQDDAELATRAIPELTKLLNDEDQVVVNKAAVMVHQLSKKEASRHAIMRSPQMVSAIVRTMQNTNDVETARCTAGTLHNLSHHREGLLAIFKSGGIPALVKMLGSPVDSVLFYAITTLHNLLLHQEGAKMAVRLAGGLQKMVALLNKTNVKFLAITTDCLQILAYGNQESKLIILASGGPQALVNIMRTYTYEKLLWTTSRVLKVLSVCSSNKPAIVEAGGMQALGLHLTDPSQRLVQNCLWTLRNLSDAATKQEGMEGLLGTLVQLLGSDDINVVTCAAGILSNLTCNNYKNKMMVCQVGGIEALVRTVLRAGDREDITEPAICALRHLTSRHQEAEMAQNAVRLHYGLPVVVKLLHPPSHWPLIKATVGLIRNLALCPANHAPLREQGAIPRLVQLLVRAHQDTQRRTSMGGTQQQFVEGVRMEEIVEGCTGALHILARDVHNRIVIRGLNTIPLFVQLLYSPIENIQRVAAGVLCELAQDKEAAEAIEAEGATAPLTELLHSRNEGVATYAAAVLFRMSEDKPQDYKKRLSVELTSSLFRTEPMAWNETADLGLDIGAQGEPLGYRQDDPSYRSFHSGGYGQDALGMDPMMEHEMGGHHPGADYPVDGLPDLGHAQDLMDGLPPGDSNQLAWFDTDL
# Protocol description: AlphaScreen competition; full-length beta-catenin, biotin-TCF4(10-53) probe
Starred links: 1 amine or outer side, 2 acyl side, 3 side chain; linkers in the order of their positions; H or OH if unused. Positions of bridges follow the written chain, without caps; N, C: chain ends. Non-standard residues stand in square brackets, D forms with d. Primed or numbered codes have the meaning given here. RdN″ = (R)-4-(((allyloxy)carbonyl)(methyl)amino)-2-amino-2-methylbutanoic acid (stapling residue), C=CCOC(=O)N(C)CC[C@@](C)(N[*:1])C(=O)[*:2]; S7 = C[C@@](CCCCCC=[*:3])(N[*:1])C(=O)[*:2]; Nle = CCCC[C@H](N)C(=O)O
Experimental endpoint: pEC50
Answers are plain numbers, as −log10 of the molar value.

Please look up its pEC50: Ac-ADI[RdN″]D[Nle]AAFQ[S7]FWH-NH2 (staple 4-11, Stapled peptide; also called Ac-Ala-Asp-Ile-RdN-Asp-nLeu-Ala-Ala-Phe-Gln-S7-Phe-Trp-His-NH2) [I-69]
5.04
